Item-by-item account of Yield (%) β-glucosidase from Agrobacterium
- Experimental Target: β-glucosidase from Agrobacterium (Agrobacterium sp.)
- Construct: purchased Megazyme; host or cells: recombinant
- Sequence (P12614 1-459): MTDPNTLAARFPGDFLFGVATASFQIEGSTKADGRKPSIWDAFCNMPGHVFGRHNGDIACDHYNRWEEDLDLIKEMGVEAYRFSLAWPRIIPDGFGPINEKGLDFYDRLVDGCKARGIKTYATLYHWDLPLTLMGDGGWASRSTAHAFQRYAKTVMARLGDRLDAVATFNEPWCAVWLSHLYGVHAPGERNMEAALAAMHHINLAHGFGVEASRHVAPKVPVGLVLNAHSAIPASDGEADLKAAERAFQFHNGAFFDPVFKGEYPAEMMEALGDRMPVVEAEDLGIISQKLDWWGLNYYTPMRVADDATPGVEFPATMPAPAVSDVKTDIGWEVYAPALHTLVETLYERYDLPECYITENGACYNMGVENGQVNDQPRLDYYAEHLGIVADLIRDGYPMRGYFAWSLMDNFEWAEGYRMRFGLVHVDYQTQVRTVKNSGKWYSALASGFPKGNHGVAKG
- Assay Remarks: Indigogenic reaction with β-glucosidase from Agrobacterium
- Assay type: biochemical
- Test Parameters: indoxyl 100 μM, enzyme 200 nM, 0.05 M phosphate buffer pH 7.0, 2% DMF, 37° C., 2 h, n=3; ε = 1.27 × 10^4 M^-1 cm^-1
Observable: Yield (%) β-glucosidase from Agrobacterium

# Compound, Measurement
rows = [
    ("COc1nc(Oc2ccc3[nH]cc(O[C@@H]4O[C@H](CO)[C@@H](O)[C@H](O)[C@H]4O)c3c2Br)nc(N2CCOCC2)n1 [Indoxyl 20]", 150),
    ("COc1nc(Oc2ccc3[nH]cc(O[C@@H]4O[C@H](CO)[C@@H](O)[C@H](O)[C@H]4O)c3c2)nc(N2CCOCC2)n1 [Indoxyl 19]", 46),
    ("C#CCOc1c(Br)cc2[nH]cc(O[C@@H]3O[C@H](CO)[C@@H](O)[C@H](O)[C@H]3O)c2c1Br [Indoxyl 27]", 184),
]
